system: Trypanosoma brucei; assay: Trypanosoma brucei 72 hour study; type: functional, organism-based; set-up: scale not given: in the data most compounds retested in dose-response had high values; conditions: 30.3 µM; […]
The whole screen tested about 66,000 compounds, of which about 960 (1.5%) showed an effect of 50% or more. What follows is part of a selection rich in strong results, with near analogues and random picks from the rest.
MEASUREMENT LABEL: Percent Effect (%)

In [3]: df
Out[3]:
                                smiles_text  recorded_value
0   CS(=O)(=O)N1CCC(Nc2ccnc3ccc(Cl)cc23)CC1            -667
1  CNCC(=O)N1CC(c2cc(Nc3nc(C)cs3)nc(C)n2)C1.Cl           20.55
2  CCOC(=O)[C@]12CCCN(Cc3cccs3)C[C@H]1CN(C(C)=O)C2.O=C(O)C(F)(F)F          -10.51
3  CCNC(=O)[C@@H]1C[C@H](N)CN1Cc1ccc(Sc2ccc(C)cc2)o1            18.4
4  CN(C)C(=O)c1cnc2n1CCN(Cc1ccc3c(c1)OCO3)C2.O=C(O)C(F)(F)F            -102
5        Cc1nc(Nc2nccs2)cc(C2CN(C(C)C)C2)n1           5.847
6  CCNC(=O)[C@@H]1C[C@@H](N)CN1Cc1ccc(Sc2ccc(C)cc2)o1           100.1
7  CSCC[C@@H](CO)Nc1ccc(-c2nc(-c3ccccc3F)no2)cn1          -25.91
8  CCNC(=O)[C@@H]1C[C@H](N)CN1Cc1ccc(-c2cc[nH]n2)o1          -17.36
9      NC(=O)CN1CCC(Nc2ccnc3ccc(Cl)cc23)CC1           62.45

----------
Listed below: Percent Effect values for each entry.
system: Trypanosoma brucei; test: Trypanosoma brucei 72 hour study; format: functional, organism-based; design: scale not given: in the data most compounds retested in dose-response had high values; conditions: 30.3 µM; […]
Hit rate of the full screen: of about 66,000 compounds, about 960 (1.5%) showed an effect of 50% or more. Only a selection was taken, and strong results are over-represented in it overall.
MEASUREMENT LABEL: Percent Effect (%)

>>> df
                                   molecule  unit_string  recorded_value
0  COCC1N(C(=O)c2ccc3c(c2)OCCCO3)[C@H]2CC[C@]1(O)CC2 (stereo not given in full)            %          -35.32
1  CN(C)[C@@H]1CCN(S(=O)(=O)C2CC2)[C@H]1Cc1ccccc1.O=C(O)C(F)(F)F            %          -33.03
2  c1cnc(N2CCC3(CCCN(CC4CCCCC4)C3)C2)cn1 (stereo not given)            %          -7.519
3  Nc1ncncc1-c1noc([C@@H]2CCCN2Cc2cccnc2)n1            %          -3.258
4  Fc1ccc(CN2CCC3(CCCN(c4nncs4)C3)C2)cc1.O=C(O)C(F)(F)F (stereo not given)            %          -195.3
5  CN(C)C(=O)[C@H]1C[C@H]2OCC[C@H]2N(Cc2ccc3ccccc3n2)C1.O=C(O)C(F)(F)F.O=C(O)C(F)(F)F            %          -111.9
6  COc1cc(N2CCC3(CCCN(Cc4ccccn4)C3)C2)ncn1.O=C(O)C(F)(F)F (stereo not given)            %           -81.3
7     Nc1ncncc1-c1noc([C@@H]2CCCN2CC2CC2)n1            %          -4.914
8  CCN(CC)Cc1cn2c(n1)CN(C1CCOC1)CC2.O=C(O)C(F)(F)F.O=C(O)C(F)(F)F (stereo not given)            %          -56.79
9  Cn1cc(NC(=O)CNC(=O)N2CCN(c3ccc(Cl)cc3)CC2)cn1            %           4.499

----------
test system: Trypanosoma brucei; experiment: Trypanosoma brucei 72 hour study; assay type: functional, organism-based; design: scale not given: in the data most compounds retested in dose-response had high values; conditions: 30 µM; 30.03 µM
The whole screen tested about 66,000 compounds, of which about 960 (1.5%) showed an effect of 50% or more. This is one part of a sample in which strong results are shown more often than they occur.
Label y when Percent Effect < 30%; otherwise n.

>>> print(df.to_string())
                                   compound     measured_target  class_assignment
0  Cc1nn(-c2ncnc3[nH]cnc23)c2c1C(CC(C)C)CC(=O)N2 (stereo not given)  Trypanosoma brucei                 n
1  Cc1nc(C)n(CC2CCCCN2Cc2ncc(C(C)(C)C)o2)n1 (stereo not given)  Trypanosoma brucei                 y
2  Cc1cc(F)ccc1-n1cc(O)c(C(=O)NCC2(O)CCC2)n1  Trypanosoma brucei                 y
3  O=C(O)C(F)(F)F.O=C(O)C(F)(F)F.O=C1NC2(CCN(Cc3ccsc3)CC2)CC1c1ccncc1 (stereo not given)  Trypanosoma brucei                 n
4  CC(C)=CCN1C(=O)[C@H]2CC[C@@H]1CN(c1ncccc1C(N)=O)C2  Trypanosoma brucei                 y
5  O=C1[C@H]2CC[C@H](CN(Cc3nnc(C4CC4)o3)C2)N1Cc1cscn1  Trypanosoma brucei                 y
6  O=S(=O)(Nc1cnn(C2CCOCC2)c1)c1ccc(F)c(F)c1  Trypanosoma brucei                 n
7           CC(C)(C)c1cnc(CN2CCC[C@H]2CO)o1  Trypanosoma brucei                 y
8  Cc1nn(-c2ccccc2)c2c1C(c1ccc(C(=O)O)cc1)CC(=O)N2 (stereo not given)  Trypanosoma brucei                 y
9  Cc1nn(-c2ncnc3[nH]cnc23)c2c1C(C(C)(C)C)CC(=O)N2 (stereo not given)  Trypanosoma brucei                 n

----------
Listed below: Percent Effect values for each entry.
system: Trypanosoma brucei; test: Trypanosoma brucei 72 hour study; assay type: functional, organism-based; set-up: scale not given: in the data most compounds retested in dose-response had high values; conditions: 30 µM; 30.03 µM
Among all 66,000 compounds or so, about 960 (1.5%) showed an effect of 50% or more. The sample as a whole holds a higher share of strong results than the screen did.
MEASUREMENT LABEL: Percent Effect (%)

In [3]: df
Out[3]:
                                    compound     measured_target  measurement_label  unit_string  recorded_value
 0  CC(C)Cc1nc(CN2CCc3onc(-c4cccc(F)c4)c3C2)no1  Trypanosoma brucei     Percent Effect            %           18.46
 1  CCC(C)Oc1ccc(CNCCc2c[nH]cn2)cc1Cl (stereo unspecified)  Trypanosoma brucei     Percent Effect            %          -7.702
 2  c1ccc(-c2nnc3ccc(N4CCC5(CCOC5)C4)nn23)cc1 (stereo unspecified)  Trypanosoma brucei     Percent Effect            %           81.34
 3  CCNC(=O)Nc1ccc(N2CCC(OC)CC2)c(C(F)(F)F)c1  Trypanosoma brucei     Percent Effect            %         -0.4307
 4  FC(F)c1nnc2ccc(N3CCC4(CCOC4)C3)nn12 (stereo unspecified)  Trypanosoma brucei     Percent Effect            %          -51.53
 5  CC(C)(C)C(NCC(=O)N1CCNC(=O)C1)c1ccccc1 (stereo unspecified)  Trypanosoma brucei     Percent Effect            %           -32.1
 6  Cc1ccc(C(=O)NCCC2CN(C3CCCC3)CCO2)c(C)c1 (stereo unspecified)  Trypanosoma brucei     Percent Effect            %          0.3212
 7  Cc1ccc(N(Cc2ccco2)C(=O)CC2=NN(C)C(=O)C2)cc1  Trypanosoma brucei     Percent Effect            %          -11.27
 8   Cc1nc(N2CCCC2)ncc1-c1cc(O)nc(N2CCCC2)n1  Trypanosoma brucei     Percent Effect            %            64.4
 9  COc1ccc(C2=CCN(C(=O)C3CCN(C)C(=O)C3)CC2)cc1 (stereo unspecified)  Trypanosoma brucei     Percent Effect            %            57.6
10  O=C1CCC2(CCN(Cc3cscn3)CC2)CN1[C@H]1CC[C@H](O)CC1  Trypanosoma brucei     Percent Effect            %          -1.213
